Data origin, for the record: patent US20230151068A1

Listed here are binders together with their documented enrichment score.
Molecular target: biotinylated His-Avi-TEAD (194-411) (UniProt P28347)
Assay: SSM screen, enrichment after two rounds of sorting
Give only the figure.

# count of solved cases: 2
# binder, enrichment score
data = [
    ("GSPDEYIERAKECCKKGDIHCCLRYFEESGDPNVMLICLFCP (designed binder) [Q18H variant of SEQ ID NO: 1]", -4.39),
    ("GSPDEYIERAKECCKNGDIQCCLRYFEESGDPNVMLICLFCP (designed binder) [K14N variant of SEQ ID NO: 1]", 1.51),
]

Now, please, on to the next binder.
Reported enrichment score ( GSPDEYIERRKECCKKGDIQCCLRYFEESGDPNVMLICLFCP (designed binder) [A08R variant of SEQ ID NO: 1] ) = -5.84
